So I've got IC50 readings for Androgen receptor (Homo sapiens, UniProt P10275), take a look.
One number for each entry, in nM.

Worked set:
Cc1ccc(C(=O)NC2CC3(CCN(c4ccc(C#N)c(C(F)(F)F)c4)C3)C2)cn1 (stereo not drawn): 33.2
CN1CCN(c2ccc(C(=O)NC3CC4(CCN(c5ccc(C#N)c(C(F)(F)F)c5)C4)C3)cc2)CC1 (stereo not drawn): 24.6

Proceeding to the next compound to report its IC50.
Task: Look up IC50 with Androgen receptor (Homo sapiens, UniProt P10275) for this compound: N#Cc1ccc(CN2CC3(CCN(c4ccc(C#N)c(C(F)(F)F)c4)C3)C2)cc1
Sequence (P10275 whole entry): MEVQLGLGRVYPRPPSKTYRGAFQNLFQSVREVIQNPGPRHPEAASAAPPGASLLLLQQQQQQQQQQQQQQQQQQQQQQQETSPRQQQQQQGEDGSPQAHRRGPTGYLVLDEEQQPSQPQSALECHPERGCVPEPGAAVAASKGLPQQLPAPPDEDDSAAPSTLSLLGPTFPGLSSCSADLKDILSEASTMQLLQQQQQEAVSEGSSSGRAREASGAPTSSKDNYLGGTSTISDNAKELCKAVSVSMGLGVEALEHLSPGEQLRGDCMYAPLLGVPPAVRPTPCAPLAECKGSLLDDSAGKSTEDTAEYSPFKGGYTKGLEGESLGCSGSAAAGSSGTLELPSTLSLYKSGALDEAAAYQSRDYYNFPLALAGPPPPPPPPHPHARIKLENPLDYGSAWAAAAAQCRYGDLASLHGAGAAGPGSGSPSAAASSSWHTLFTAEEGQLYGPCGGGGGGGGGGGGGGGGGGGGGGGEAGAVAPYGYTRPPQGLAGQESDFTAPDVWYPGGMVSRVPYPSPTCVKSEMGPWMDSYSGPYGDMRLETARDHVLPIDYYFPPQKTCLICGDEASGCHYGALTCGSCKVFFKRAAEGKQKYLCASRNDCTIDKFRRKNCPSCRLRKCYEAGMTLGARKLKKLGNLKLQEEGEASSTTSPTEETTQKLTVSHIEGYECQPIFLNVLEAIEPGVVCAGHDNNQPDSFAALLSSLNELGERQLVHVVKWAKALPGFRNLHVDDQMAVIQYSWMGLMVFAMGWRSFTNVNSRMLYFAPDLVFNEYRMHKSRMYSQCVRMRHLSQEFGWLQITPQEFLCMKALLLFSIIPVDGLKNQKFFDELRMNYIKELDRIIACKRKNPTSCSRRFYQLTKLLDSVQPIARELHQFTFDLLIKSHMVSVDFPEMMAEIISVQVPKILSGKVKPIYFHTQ
Output: 313

---

test: in vitro; conditions: human, microsomes
observation.type: microsomal CLint at 1 h, 1 µM

For each entry beneath this line, provide reported microsomal CLint at 1 h, 1 µM.
1. N#Cc1ccc(-c2ccc(C(=O)NC3CC4(CCN(c5ccc(C#N)c(C(F)(F)F)c5)C4)C3)cc2)cc1F (configuration not stated)
2. C[C@](O)(CN1CCN(c2ccc(-c3ccc(C#N)c(F)c3)cc2)CC1)C(=O)Nc1ccc(C#N)c(C(F)(F)F)c1

Output:
1: 9 µL/min/mg; 2: 252 µL/min/mg

---

assay: in vitro; settings: human, microsomes
Description: Metabolic stability in human liver microsomes assessed as parent compound remaining at 1 uM measured after 60 mins in presence of NADPH by LC-MS/MS analysis
observation.type: remaining at 1 h, 1 µM (%)
One number for each entry, in %.

C[C@](O)(CN1CCN(c2ccc(-c3ccc(C#N)c(F)c3)cc2)CC1)C(=O)Nc1ccc(C#N)c(C(F)(F)F)c1: 0.74

We next turn to a different compound, shown below.
Task: I'd like to know its remaining at 1 h, 1 µM. The compound in question is N#Cc1ccc(-c2ccc(C(=O)NC3CC4(CCN(c5ccc(C#N)c(C(F)(F)F)c5)C4)C3)cc2)cc1F (configuration not stated)
Output: 76.8

---

system: LNCaP; test: cells; type: functional, cell-based; details: Homo sapiens, 168 h
Description: Antiproliferative activity against human LNCaP cells incubated for 7 days in presence of R1881 by Celltiter-Glo assay
Give measured IC50 for each item. Keep answers brief.
One number for each entry, in µM.

In the examples that follow, each entry is paired with its recorded IC50.
CNC(=O)c1ccc(C(=O)NC2CC3(CCN(c4ccc(C#N)c(C(F)(F)F)c4)C3)C2)cc1F (stereo unspecified): 2.26
N#Cc1ccc(NC(=O)C2CC3(CCN(c4ccc(C#N)c(C(F)(F)F)c4)C3)C2)cc1 (stereo unspecified): 4.37

Below is a list of compounds. For each, state its recorded IC50.
1. COC(=O)c1ccc(C(=O)NC2CC3(CCN(c4ccc(C#N)c(C(F)(F)F)c4)C3)C2)cc1 (stereo unspecified)
2. N#Cc1ccc(N2CCC3(CC(NC(=O)c4ccc(-c5ccc(OCCO)cc5)cc4)C3)C2)cc1C(F)(F)F (stereo unspecified)
3. CN1CCN(c2ccc(C(=O)NC3CC4(CCN(c5ccc(C#N)c(C(F)(F)F)c5)C4)C3)cc2)CC1 (stereo unspecified)
4. N#Cc1ccc(-c2ccc(C(=O)NC3CC4(CCN(c5ccc(C#N)c(C(F)(F)F)c5)C4)C3)cc2)cc1F (stereo unspecified)

Output:
1. 6.46
2. 0.65
3. 3.57
4. 0.19

---

system: CWR22R; experiment: cells; assay type: functional, cell-based; conditions: Homo sapiens, 22Rv1, 168 h
Description: Antiproliferative activity against human 22Rv1 cells assessed as inhibition of cell viability incubated for 7 days by Celltiter-Glo assay
observation.type: pIC50
One number for each entry, as −log10 of the molar value.

C[C@](O)(CN1CCN(c2ccc(-c3ccc(C#N)c(F)c3)cc2)CC1)C(=O)Nc1ccc(C#N)c(C(F)(F)F)c1: 5.63

Consider now this further compound.
Task: Which pIC50 is listed for C[C@](O)(Cn1ccc2cc(F)ccc21)C(=O)Nc1ccc(C#N)c(C(F)(F)F)c1 ?
Output: 5.00

---

system: LNCaP; assay: cells; format: functional, cell-based; details: Homo sapiens, 168 h
observation.type: pIC50
One number for each entry, as −log10 of the molar value.

Some molecules with known pIC50 results, for comparison:
Cc1ccc(C(=O)NC2CC3(CCN(c4ccc(C#N)c(C(F)(F)F)c4)C3)C2)cc1 (centres undefined): 5.90
Cc1ccc(C(=O)NC2CC3(CCN(c4ccc(C#N)c(C(F)(F)F)c4)C3)C2)cn1 (centres undefined): 5.59
N#Cc1ccc(-c2ccc(C(=O)NC3CC4(CCN(c5ccc(C#N)c(C(F)(F)F)c5)C4)C3)cc2)cc1 (centres undefined): 7.10
N#Cc1ccc(N2CCC3(CC(NC(=O)c4ccc(F)cc4)C3)C2)cc1C(F)(F)F (centres undefined): 5.65
COc1ccc(C(=O)NC2CC3(CCN(c4ccc(C#N)c(C(F)(F)F)c4)C3)C2)cc1 (centres undefined): 6.04
N#Cc1ccc(N2CCC3(CC(NC(=O)c4ccc(CO)cc4)C3)C2)cc1C(F)(F)F (centres undefined): 5.70

Task: Which measured pIC50 value corresponds to N#Cc1ccc(N2CCC3(CC(NC(=O)c4ccc([N+](=O)[O-])cc4)C3)C2)cc1C(F)(F)F (centres undefined) ?
Output: 5.48

---

test: cells; assay type: functional, cell-based; details: Homo sapiens, LNCaP-EnzR, 168 h
Description: Antiproliferative activity against human LNCaP-EnzR cells assessed as inhibition of cell viability incubated for 7 days by Celltiter-Glo assay
So I've got a bunch of compounds here, and I need their IC50 values.
Give bare numbers, in µM.

Observe how each entry below is paired with its result.
N#Cc1ccc(-c2ccc(C(=O)NC3CC4(CCN(c5ccc(C#N)c(C(F)(F)F)c5)C4)C3)cc2)cc1 (stereo not given): 1.14
CC(O)c1cc(C(=O)N[C@@H](C)Cn2ccc(-c3ccc(C#N)c(Cl)c3)n2)n[nH]1 (stereo not given in full) [DAROLUTAMIDE]: 31.2
C[C@](O)(Cn1ccc2cc(F)ccc21)C(=O)Nc1ccc(C#N)c(C(F)(F)F)c1: 10.9
C[C@](O)(CN1CCN(c2ccc(-c3ccc(C#N)c(F)c3)cc2)CC1)C(=O)Nc1ccc(C#N)c(C(F)(F)F)c1: 3.29

Attention now shifts to the item below.
Task: Quick one: IC50 for N#Cc1ccc(-c2ccc(C(=O)NC3CC4(CCN(c5ccc(C#N)c(C(F)(F)F)c5)C4)C3)cc2)cc1F (stereo not given) ?
Output: 1.19

---

target: Androgen receptor (Homo sapiens, UniProt P10275); assay type: cell-based, HEK293
observation.type: IC50 (nM)
Answers are plain numbers, in nM.

COc1ccc(C(=O)NC2CC3(CCN(c4ccc(C#N)c(C(F)(F)F)c4)C3)C2)cc1 (stereo not given): 25.1
N#Cc1ccc(N2CCC3(CC(NC(=O)c4ccccc4)C3)C2)cc1C(F)(F)F (stereo not given): 43.7
N#Cc1ccc(-c2ccc(C(=O)NC3CC4(CCN(c5ccc(C#N)c(C(F)(F)F)c5)C4)C3)cc2)cc1 (stereo not given): 29.8
CNC(=O)c1ccc(C(=O)NC2CC3(CCN(c4ccc(C#N)c(C(F)(F)F)c4)C3)C2)cc1F (stereo not given): 26.3

Task: Which measured IC50 value corresponds to N#Cc1ccc(N2CCC3(CC(NC(=O)c4ccc(CO)cc4)C3)C2)cc1C(F)(F)F (stereo not given) ?
Output: 37.8

---

biological target: Androgen receptor (Homo sapiens, UniProt P10275, W742L)
Sequence (P10275 whole entry W742L): as the sequence (P10275 whole entry) above, with W742L counted along it
observation.type: pIC50
Give bare numbers, as −log10 of the molar value.

N#Cc1ccc(-c2ccc(C(=O)NC3CC4(CCN(c5ccc(C#N)c(C(F)(F)F)c5)C4)C3)cc2)cc1 (configuration not stated): 6.80

The record that follows has no pIC50 shown yet.
Task: Entry N#Cc1ccc(-c2ccc(C(=O)NC3CC4(CCN(c5ccc(C#N)c(C(F)(F)F)c5)C4)C3)cc2)cc1F (configuration not stated) : reported pIC50 = ?
Output: 6.93
